target: human Edg-1 (S1P1) (Homo sapiens, UniProt P21453); construct: expressed in transfected cells; host or cells: HEK-293; test: S1P1 binding assay: inhibition of [33P]-S1P binding to membrane fraction of HEK-293 cells transferred with the human Edg-1 (S1P1) gene; conditions: test compound 10 μM; inhibition of [33P]-S1P binding, membrane fraction
Sequence (P21453 whole entry): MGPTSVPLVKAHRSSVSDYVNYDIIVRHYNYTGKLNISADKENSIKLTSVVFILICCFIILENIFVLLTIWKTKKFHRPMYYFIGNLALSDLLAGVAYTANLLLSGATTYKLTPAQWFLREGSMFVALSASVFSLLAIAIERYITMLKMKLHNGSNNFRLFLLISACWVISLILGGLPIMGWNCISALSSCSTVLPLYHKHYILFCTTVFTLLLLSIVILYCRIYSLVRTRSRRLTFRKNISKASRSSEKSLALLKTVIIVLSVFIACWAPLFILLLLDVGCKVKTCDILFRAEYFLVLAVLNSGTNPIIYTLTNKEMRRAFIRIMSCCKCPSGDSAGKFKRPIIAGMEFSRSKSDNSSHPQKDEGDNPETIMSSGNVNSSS
assay.readout: inhibition at 10 µM (%)
I only need the number, in %, no unit after it.

Reference set (5 entries):
>>> print(df.to_string())
                                smiles_repr                               test_system        assay_readout  result_number
0  CCn1c(Oc2ccc3cc[nH]c3c2)nnc1[C@@H](C)CS(=O)(=O)c1ccc(F)c2ccccc12  human Edg-1 (S1P1) (Homo sapiens, UniProt P21453)  inhibition at 10 µM             87
1  CCn1c(Oc2ccc3cc[nH]c3c2)nnc1[C@@H](C)NS(=O)(=O)c1cc(C)sc1C  human Edg-1 (S1P1) (Homo sapiens, UniProt P21453)  inhibition at 10 µM           55.3
2  CCn1c(Oc2cccc(N3CCN(C)CC3)c2)nnc1[C@@H](C)NS(=O)(=O)c1cccc(OC)c1  human Edg-1 (S1P1) (Homo sapiens, UniProt P21453)  inhibition at 10 µM            105
3  CCn1c(Oc2cccc(N3CCN(C)CC3)c2)nnc1[C@@H](C)NS(=O)(=O)c1cccc(OC(F)F)c1  human Edg-1 (S1P1) (Homo sapiens, UniProt P21453)  inhibition at 10 µM            109
4  CCn1c(Oc2cccc(N3CCN(C)CC3)c2)nnc1[C@@H](C)NS(=O)(=O)c1ccc2c(Cl)ccc(Cl)c2c1  human Edg-1 (S1P1) (Homo sapiens, UniProt P21453)  inhibition at 10 µM            106

Prompt line: # query: inhibition at 10 µM of entry CCn1c(Oc2cccc(N3CCN(C)CC3)c2)nnc1[C@@H](C)NS(=O)(=O)c1ccc(Br)c(F)c1
Response line: 110
